Test: growth inhibitors of H69AR lung tumor, primary screen, human, duplicate replicates (AID 580);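 also: 100% = mean luminescence of untreated wells and 0% = no signal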
Conditions: H69AR lung tumor cells viability, ATP luminescence, 72 h; at 10 µM; active compounds read low
measurementType: viability (%)
Answers are plain numbers, in %.

In [3]: df
Out[3]:
                                   compound  numericresult
0  CCN1CCN(CCNC(=O)c2cn(C(C)c3ccccc3F)nn2)CC1 (stereo unspecified)           96.4
1  O=C1C(Cl)=C(NCC2CCCO2)C(=O)N1CCc1ccccc1 (stereo unspecified)           87.4
2             c1ccc(-c2noc(-c3cccnc3)n2)nc1           72.1
3     CCC(=O)N/C(N)=N/c1nc(C)c2cc(OC)ccc2n1           80.7
4  CC(C(N)=O)N1C(=O)C2C3C=CC(C3)C2C1=O (stereo unspecified)            106

Turning now to a further compound:
The value of viability measured for the compound CCCCN1CN(S(=O)(=O)c2cccs2)c2nc3ccccc3nc21 turned out to be 83.7
